Tested on: MDA-MB-468 breast
Experimental details: NCI-60 one-dose screen, 48 h (100 = growth as untreated, 0 = no growth, -100 = all killed)
Test settings: 10 µM unless noted
The panel holds about 83,000 compounds, 20% with a hit somewhere; the sample as a whole holds those more often.
# Lookup of reported growth keyed by entry
Experimental endpoint: growth (%)

Nc1c(Cl)cc(/C=C2\C=Cc3ccccc32)cc1Cl; 97.9
Cc1cc(O)ccc1C1=NN(c2ccc(S(C)(=O)=O)cc2)C(=O)CC1; 103
C#Cc1ccccc1NC(=O)c1sc2nc3c(cc2c1N)CCCCCC3; 73.5
N#CC1C(=O)NC(c2ccccc2[N+](=O)[O-])c2sc3c(F)cccc3c21 (stereo not drawn); -49
CC(=O)c1ccc2c(ccc3ccccc32)c1; 95.5
S=C(NCc1ccccc1)N1CCC(CCCC2CCN(C(=S)NCc3ccccc3)CC2)CC1; 69.1
CCOC(=O)c1c(C)nc2c(c1N)/C(=C/c1ccc(OC)cc1)C(=O)N2Cc1ccc(F)cc1; -16.4
CCOC(=O)C(C(=O)OCC)C1CCCCC1; 105
O=C1C=Cc2ccccc2/C1=C/c1[nH]c(=O)[nH]c1O; 41.5
COc1ncc(-c2ccc3ncnc(Nc4cccc(Cl)c4)c3c2)cc1NS(=O)(=O)CCN1CCOCC1; -52.8
CN(C)Cc1ccccn1; 105
CC[C@@H](C(=O)[C@@H](C)[C@@H](O)[C@H](C)[C@@H]1O[C@@H]([C@@H](CC)C(=O)O)CC[C@@H]1C)[C@H]1OC2(C=C[C@@H](O)[C@]3(CC[C@@](C)([C@H]4CC[C@](O)(CC)[C@H](C)O4)O3)O2)[C@H](C)C[C@@H]1C (stereo partly drawn); -9.66
CCN(CC)c1ccc(/C=N/NC(=O)c2ccc(NS(C)(=O)=O)cc2)c(O)c1; -10.8
NS(=O)(=O)c1ccc(-n2ncc(NC(=O)Nc3ccc(S(=O)(=O)Nc4nccs4)cc3)c2-c2ccccc2)cc1; 102
CN(C)c1ccc(/C=N/Nc2nc(N/N=C/c3ccc(N(C)C)cc3)nc(N3CCCCC3)n2)cc1; 36.3
COC(=O)CC/C(C)=N\Nc1ccc([N+](=O)[O-])cc1; 71.1
C#CC#CC#CC#CC#CC#CC#CC#CC[C@@H]1OC[C@H](COC(=O)O[C@@H](C(=O)O[C@H]2C[C@@]3(O)[C@@H](OC(=O)c4ccccc4)[C@@H]4[C@]5(OC(C)=O)CO[C@@H]5C[C@H](O)[C@@]4(C)C(=O)[C@H](OC(C)=O)C(=C2C)C3(C)C)[C@@H](NC(=O)c2ccccc2)c2ccccc2)O1; -8.1
O=C1COCCN1c1ccc(NCc2cn(Cc3ccc(F)cc3)c3ccccc23)cc1; -66.9

----------
System: MDA-MB-468 breast
Experimental details: NCI-60 one-dose screen, 48 h (100 = growth as untreated, 0 = no growth, -100 = all killed)
Test settings: 10 µM unless noted
This is part of a sample that, as a whole, favours compounds with a hit. Of some 83,000 tested, about 20% had one in any assay.
Response key: Satisfied means growth >= 70%; Not satisfied means growth < 70%.

Cc1cc(Nc2c3ccccc3nc3ccccc23)ccc1NS(C)(=O)=O; Not satisfied
CC(=O)N1N=C(c2ccc(-n3ccc(C(F)(F)F)n3)c(F)c2)CC1c1ccc[nH]1 (stereo unspecified); Satisfied
COc1cc2c3c(n(CCCNC4CCC4)c(=O)c2cc1OC)-c1cc2c(cc1C3=O)OCO2; Not satisfied
O=C(CN(C(=O)Cn1c(=O)n2nnnc2c2ccccc21)c1ccccc1C(F)(F)F)Nc1ccc(C(F)(F)F)cc1; Satisfied
c1ccc(-c2nc(Nc3nccnn3)c3ccccc3n2)cc1; Satisfied
COc1ccc(-n2c(C(O)c3ccccc3)nn(CN3CCOCC3)c2=S)cc1 (stereo unspecified); Satisfied
Nc1n[nH]c(=S)n1-c1ccc(Cl)cc1; Satisfied
O=C(Nc1nc(-c2ccccc2)cs1)c1cc(O)c(O)c(O)c1; Not satisfied
O=[N+]([O-])c1ccc(C(c2ccccc2)c2ccccc2)cc1; Satisfied
Cc1nn(-c2ccccc2)c2nc(Cl)c(/C=C/C(=O)c3ccccc3)c(-c3ccccc3)c12; Satisfied
Cn1cc(-c2nnc(-c3cn(C)c4ncccc34)o2)c2ccccc21; Not satisfied
Fc1ccc(Nc2nc(Nc3ccc(-c4nc5ccccc5[nH]4)cc3)nc(N3CCCC3)n2)cc1; Satisfied
CC(=O)C1=NN(c2ccc(Cl)cc2)C(=O)CN1C; Satisfied
Cn1cc(-c2csc(-c3c[nH]c4ccccc34)n2)c2ccnc(Cl)c21; Not satisfied
COc1ccccc1NC(=O)C1CC(c2ccc(F)cc2)=NO1 (stereo unspecified); Satisfied
Cn1cc(C(=O)c2nc(-c3c[nH]c4ccc(F)cc34)no2)c2cc(F)ccc21; Satisfied
CS(=O)(=O)c1nccc(-c2c(-c3cccc(OCCN4CCOCC4)c3)nc3sccn23)n1; Not satisfied
Cn1cc(-c2nc(-c3c[nH]c4ccncc34)cs2)c2cc(F)ccc21; Not satisfied
CCC[CH2][Sn]1([CH2]CCC)[O]C2C(CO)OC(n3ccc(N)nc3=O)C2[O]1 (stereo unspecified); Not satisfied

// provenance: PubChem BioAssay (NCI)
